Biological target: Cyclophilin A (Homo sapiens, UniProt P62937)
Construct: made in house
Sequence (P62937 whole entry, species assumed): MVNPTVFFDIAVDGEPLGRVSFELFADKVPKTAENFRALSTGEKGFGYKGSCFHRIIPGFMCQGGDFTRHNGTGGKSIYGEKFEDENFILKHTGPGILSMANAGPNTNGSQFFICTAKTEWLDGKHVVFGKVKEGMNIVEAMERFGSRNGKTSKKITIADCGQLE
Test: AlphaLISA inhibition of binding of biotinylated Cyclosporin A to FLAG tagged Cyclophilin A
Conditions: AlphaLISA signal; test concentration not given
Where a SMILES comes first, the peptide text is derived from it. [ ]: non-standard residue; d: D form. MeBmt = C/C=C/C[C@@H](C)[C@@H](O)[C@H](NC)C(=O)O; NMeF = CN[C@@H](Cc1ccccc1)C(=O)O; NMeI = CC[C@H](C)[C@H](NC)C(=O)O; NMeL = CN[C@@H](CC(C)C)C(=O)O; NMeV = CN[C@H](C(=O)O)C(C)C; NMeA = CN[C@@H](C)C(=O)O; Abu = CC[C@H](N)C(=O)O; Sar = CNCC(=O)O
Attribute: % signal
Enter your answer as a number in %; do not include the unit.

These recorded examples may help you get a feel for the data.
Molecule	Result type	Value unit	Value observed
C/C=C/C[C@@H](C)[C@@H](O)[C@H]1C(=O)N[C@@H](CC)C(=O)N(C)CC(=O)N(C)[C@@H](C)C(=O)N[C@@H](C(C)C)C(=O)N(C)[C@@H](CC(C)C)C(=O)N[C@@H](CC(C)C)C(=O)N[C@H](C)C(=O)N(C)[C@@H](CC(C)C)C(=O)N(C)[C@@H](CC(C)C)C(=O)N(C)[C@@H](C(C)C)C(=O)N1C [Compound C46] (cyclo([MeBmt][Abu][Sar][NMeA]V[NMeL]L[dA][NMeL][NMeL][NMeV]))	% signal	%	1.04
C/C=C/C[C@@H](C)[C@@H](O)[C@H]1C(=O)N[C@@H](CC)C(=O)N(C)CC(=O)N(C)[C@@H](Cc2ccccc2)C(=O)N[C@@H](CC(C)C)C(=O)N(C)[C@@H](CC(C)C)C(=O)N[C@@H](CC(C)C)C(=O)N[C@H](C)C(=O)N(C)[C@@H](CC(C)C)C(=O)N(C)[C@@H](CC(C)C)C(=O)N(C)[C@@H](C(C)C)C(=O)N1C [Compound C60] (cyclo([MeBmt][Abu][Sar][NMeF]L[NMeL]L[dA][NMeL][NMeL][NMeV]))	% signal	%	52.68
C/C=C/C[C@@H](C)[C@@H](O)[C@H]1C(=O)N[C@@H](CC)C(=O)N(C)CC(=O)N(C)[C@@H]([C@@H](C)CC)C(=O)N[C@@H](C(C)C)C(=O)N(C)[C@@H](CC(C)C)C(=O)N[C@@H](C)C(=O)N[C@H](C)C(=O)N(C)[C@@H](CC(C)C)C(=O)N(C)[C@@H](CC(C)C)C(=O)N(C)[C@@H](C(C)C)C(=O)N1C	% signal	%	−0.08
C/C=C/C[C@@H](C)[C@@H](O)[C@H]1C(=O)N[C@@H](CC)C(=O)N(C)CC(=O)N(C)[C@@H](CC(C)C)C(=O)N[C@@H](C(C)C)C(=O)N(C)[C@@H](C)C(=O)N[C@@H](CC(C)C)C(=O)N[C@H](C)C(=O)N(C)[C@@H](CC(C)C)C(=O)N(C)[C@@H](CC(C)C)C(=O)N(C)[C@@H](C(C)C)C(=O)N1C [Compound C86] (cyclo([MeBmt][Abu][Sar][NMeL]V[NMeA]L[dA][NMeL][NMeL][NMeV]))	% signal	%	17.23

Write down the reported % signal of C/C=C/C[C@@H](C)[C@@H](O)[C@H]1C(=O)N[C@@H](CC)C(=O)N(C)CC(=O)N(C)[C@@H]([C@@H](C)CC)C(=O)N[C@@H](C(C)C)C(=O)N(C)[C@@H](CC(C)C)C(=O)N[C@@H](CC(C)C)C(=O)N[C@H](C)C(=O)N(C)[C@@H](CC(C)C)C(=O)N(C)[C@@H](CC(C)C)C(=O)N(C)[C@@H](C(C)C)C(=O)N1C [Compound C45] (cyclo([MeBmt][Abu][Sar][NMeI]V[NMeL]L[dA][NMeL][NMeL][NMeV])) , test system: Cyclophilin A (Homo sapiens, UniProt P62937). −0.03
